# Run description: self-splicing fitness, log relative to wild type (ln ratio); higher = more splicing; Tetrahymena group I intron in knt gene, E. coli kanamycin selection, DiMSum; sequences stand for … in CUCUCU…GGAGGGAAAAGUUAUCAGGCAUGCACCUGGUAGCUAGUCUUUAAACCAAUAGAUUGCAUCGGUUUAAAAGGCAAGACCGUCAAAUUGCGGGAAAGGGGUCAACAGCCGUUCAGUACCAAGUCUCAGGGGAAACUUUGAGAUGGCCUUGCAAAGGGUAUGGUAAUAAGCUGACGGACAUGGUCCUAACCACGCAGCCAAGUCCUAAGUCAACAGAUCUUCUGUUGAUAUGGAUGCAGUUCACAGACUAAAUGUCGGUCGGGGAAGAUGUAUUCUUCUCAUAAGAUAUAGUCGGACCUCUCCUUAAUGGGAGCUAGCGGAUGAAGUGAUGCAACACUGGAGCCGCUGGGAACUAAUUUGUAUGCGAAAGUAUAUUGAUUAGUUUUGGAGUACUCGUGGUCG;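 further: selection with 25 µg/mL kanamycin versus none on LB agar overnight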
# Stated conditions: 30 °C
Recorded self-splicing fitness (ln) by entry
The reply should be a number, written without any unit.

Use these answered entries as a reference point.
UCCGAGCAAUAUUACGCUAC : -2.97
CGAGAGCAAUAUUACGAAUG : -2.96

Q: Annotate the sequence `AUUUAGCAAUAUUACGGAGU` with its measured self-splicing fitness (ln).
Result: -2.92

Q: Recall and state the measured self-splicing fitness (ln) for `CACCAGCAAUAUUACGGAUU` .
Result: -2.05

Q: Supply measured self-splicing fitness (ln) of `GUGAAGCAAUAUUACGUCAU` in your reply.
Result: -3.04

====

# self-splicing fitness (ln) per record follows
# Run description: self-splicing fitness, log relative to wild type (ln ratio); higher = more splicing; Tetrahymena group I intron in knt gene, E. coli kanamycin selection, DiMSum; sequences stand for … in CUCUCU…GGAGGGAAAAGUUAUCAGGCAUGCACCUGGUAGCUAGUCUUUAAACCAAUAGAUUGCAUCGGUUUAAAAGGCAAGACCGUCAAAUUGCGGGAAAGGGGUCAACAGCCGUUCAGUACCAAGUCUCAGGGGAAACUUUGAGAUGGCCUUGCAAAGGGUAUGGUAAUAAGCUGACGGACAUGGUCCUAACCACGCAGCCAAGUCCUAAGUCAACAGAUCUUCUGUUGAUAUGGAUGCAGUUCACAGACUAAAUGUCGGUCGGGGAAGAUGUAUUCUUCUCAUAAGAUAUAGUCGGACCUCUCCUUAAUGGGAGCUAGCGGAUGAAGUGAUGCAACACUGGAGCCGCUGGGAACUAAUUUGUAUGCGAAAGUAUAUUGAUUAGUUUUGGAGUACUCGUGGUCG
# Stated conditions: 37 °C

// worked examples, self-splicing fitness (ln) included
UGAUAGCAAUAUUACGAUGA : -0.791
CGCGAGCAAUAUUACGCAAA : -3.4
GCACAGCAAUAUUACGUUGU : -2.74
ACUUAGCAAUAUUACGUAAC : -2.43
CCCAAGCAAUAUUACGCAUA : -2.49
CACUAGCAAUAUUACGCGGU : -3.62

Q: Please report the measured self-splicing fitness (ln) for `GUUCAGCAAUAUUACGGUUA`
Result: -0.352

Q: Note self-splicing fitness (ln) for the sequence shown: `AAACAGCAAUAUUACGACCG`
Result: 0.0387
